Compiled notes: published pIC50 values involving Xanthine dehydrogenase/oxidase (Bos taurus).
pIC50: −log10 of the molar value.

Which pIC50 is reported for this molecule? `CC(C)COc1ccc(-c2nc(-c3ccccn3)n[nH]2)cc1[N+](=O)[O-]`
< 5.00

Which pIC50 is reported for this molecule? `O=C(/C=C/c1ccc(O)c2oc(-c3ccc(O)c(O)c3)cc12)Nc1ccc(Br)cc1`
< 4.00

Which pIC50 is reported for this molecule? `Cc1ccccc1C(=O)Nc1cccc(C(=O)/C=C/c2ccc3c(c2)c2ccccc2n3C)c1`
< 4.00

---

Compiled notes: published IC50 values involving Xanthine dehydrogenase/oxidase (Bos taurus, UniProt P80457).
REPORTED_ENDPOINT: IC50 (µM)

1) CCOC(=O)C1=C(C)Oc2ccc3ccccc3c2C1c1cccs1 (stereo not drawn) | 11.4

A: N#Cc1cc(-c2nccc(N)n2)ccc1OCC1CCCCC1
B: CC(=O)OCC1=CC[C@@H]2C(C(=O)Nc3cccc4[nH]ccc34)=CO[C@@H](O[C@@H]3O[C@H](COC(C)=O)[C@@H](OC(C)=O)[C@H](OC(C)=O)[C@H]3OC(C)=O)[C@H]12
Kindly compare A with B and tell me which has the lower IC50 figure. Please respond with the label that marks your chosen entry.
A
(A: 0.539 µM, B: 17.5 µM)

P: N#Cc1cccc(Cn2cc(COc3ccc(F)cc3C=O)nn2)c1
Q: COc1cc(-c2oc3cc(O)cc(O)c3c(=O)c2OS(=O)(=O)O)ccc1O
// pick larger IC50 from pair: P vs Q Please respond with the label that marks your chosen entry.
Q
(Q: 34.6 µM, P: 2.54 µM)

A: O=c1cc(-c2cc(F)cc(F)c2)oc2c1ccc1ccccc12
B: Cc1cc(-c2n[nH]c(-c3ccnc(OCC(C)C)c3)n2)ccn1
// pick larger IC50 from pair: A vs B Please respond with the label that marks your chosen entry.
A
